Test system: Jurkat
Test: Hoechst 33342 nuclear staining
Format: cell-based, human
Conditions: 48 h read-out
pEC50: −log10 of the molar value.
Please provide measured pEC50 for the entries that follow.

Dear colleague, could you please provide pEC50 for the compounds listed below?
1. COCC(=O)Nc1cccc(-c2cncc(Nc3ccc(OC)cc3)c2)c1 [Example 41]
2. CCC(=O)Nc1cccc(-c2cncc(Nc3ccc(OC)cc3)c2)c1 [Example 21]
3. COc1ccc(Nc2cncc(-c3cccc(NC(=O)Cc4ccccc4)c3)c2)cc1 [Example 15]
4. COc1ccc(Nc2cncc(-c3cccc(NC(=O)c4ccccn4)c3)c2)cc1 [Example 17]
5. COc1ccc(Nc2cncc(-c3cccc(NC(=O)c4ccccc4)c3)c2)c(OC)c1 [Example 30]
6. COc1ccc(Nc2cncc(-c3cccc(NC(=O)c4cccnc4Cl)c3)c2)cc1 [Example 11]
7. COc1ccc(Nc2cncc(-c3cccc(NC(=O)c4cnccn4)c3)c2)cc1 [Example 12]
8. COc1ccc(Nc2cncc(-c3cccc(NC(=O)c4ccco4)c3)c2)cc1 [Example 14]

Solution:
1. 6.00 to 7.00
2. 6.00 to 7.00
3. 6.00 to 7.00
4. 6.00 to 7.00
5. 6.00 to 7.00
6. 7.00 to 8.00
7. 7.00 to 8.00
8. 7.00 to 8.00

Dear colleague, could you please provide pEC50 for the compounds listed below?
1. COc1ccc(Nc2cncc(-c3cccc(NC(=O)c4ccncc4)c3)c2)cc1 [Example 16]
2. COc1ccc(Nc2cncc(-c3cccc(NC(C)=O)c3)c2)cc1 [Example 8]
3. COc1ccc(Nc2cncc(-c3cccc(NC(=O)c4cccnc4)c3)c2)cc1 [Example 13]

Solution:
["> 8.00", "6.00 to 7.00", "6.00 to 7.00"]

* * *

Test system: HT1080
Assay: MTS proliferation assay
Assay type: cell-based, human
Conditions: HT1080, 72 h read-out
pIC50: −log10 of the molar value.
propertyName: pIC50

itemSmiles	observedValue
COc1ccc(Nc2cncc(-c3cccc(NC(=O)c4ccccc4)c3)c2)cc1OC	< 6.00

Dear colleague, could you please provide pIC50 for the compounds listed below?
1. COc1ccc(Nc2cncc(-c3cccc(NS(=O)(=O)CCCCl)c3)c2)cc1
2. COc1ccc(Nc2cncc(-c3cccc(NC(=O)c4ccccc4)c3)c2)c(OC)c1
3. COc1ccc(Nc2cncc(-c3cccc(NC(=O)c4ccncc4)c3)c2)cc1
4. O=C(Nc1cccc(-c2cncc(Nc3ccc(OCc4ccccc4)cc3)c2)c1)c1ccccc1
5. CCC(=O)Nc1cccc(-c2cncc(Nc3ccc(OC)cc3)c2)c1
6. COc1ccc(Nc2cncc(-c3cccc(NC(=O)c4cnccn4)c3)c2)cc1
7. COc1ccc(Nc2cncc(-c3cccc(NC(=O)C(C)C)c3)c2)cc1

Solution:
1. 6.00 to 7.00
2. < 6.00
3. > 8.00
4. < 6.00
5. 6.00 to 7.00
6. 7.00 to 8.00
7. 6.00 to 7.00

The compound identified as `COc1ccc(Nc2cncc(-c3cccc(NC(=O)c4ccc(OC)cc4)c3)c2)cc1` registered its pIC50 at 6.00 to 7.00

* * *

Test system: Jurkat
Assay: Hoechst 33342 nuclear staining
Format: cell-based, human
Settings: 48 h read-out
Procedure: This assay is performed in 96 well tissue culture plates. Appropriate number of cells (adherent cells: 3-5*10^3, suspension cells: 8-10*10^3) are being seeded out in 80 μl complete medium. […] The assay plates are then further incubated for 30 minutes and subsequently analyzed with a standard inverted fluorescence microscope. The readout allows the determination of the fraction of apoptotic nuclei as well as other morphological criteria specific for apoptosis as a function of the treatment. […]
pEC50: −log10 of the molar value.
Please provide measured pEC50 for the entries that follow.

// below: answered molecules
molecule	pEC50
CCOc1ccccc1C(=O)Nc1cccc(-c2cncc(Nc3ccc(OC)cc3)c2)c1 [Example 10]	7.00 to 8.00
COc1ccc(Nc2cncc(-c3cccc(NS(=O)(=O)c4ccccc4)c3)c2)cc1 [Example 23]	6.00 to 7.00
COc1ccc(Nc2cncc(-c3cccc(NC(=O)C(C)C)c3)c2)cc1 [Example 26]	7.00 to 8.00

Proceeding to the next molecule to report its pEC50.
The molecule identified as COc1ccc(Nc2cncc(-c3cccc(NC(=O)c4cccc(OC)c4)c3)c2)cc1 [Example 25] registered its pEC50 at 6.00 to 7.00

The values you see were collected from patent US8288421B2.
